targetOfAssay: T1, GST-FUS3-B3 (Arabidopsis thaliana, UniProt Q9LW31)
T1 chain: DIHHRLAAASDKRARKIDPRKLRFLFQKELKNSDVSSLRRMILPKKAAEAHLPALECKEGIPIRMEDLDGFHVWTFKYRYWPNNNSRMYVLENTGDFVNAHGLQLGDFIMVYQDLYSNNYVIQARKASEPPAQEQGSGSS
protocolDetails: EMSA; BLI: Octet Qke, 1x Kinetics Buffer (ForteBio), pH 7.0, 0.05 uM biotinylated probe on streptavidin, temperature not stated; EMSA: MgCl2, 0.05% NP-40, 0.5 nM probe, 15 ul, room temperature 20 min, 6% gel in 0.5x TBE (rest of buffer not in material)
reportedConditions: protein: recombinant; tags: GST (N-terminal, pGEX-2T); label: 5' biotin on strand 1 (strand 2 oligo also named 5-Biotin-probe); blunt
readoutLabel: Kd (nM)

# binder, readoutLabel, testValue
records = [
    ("Sph2 probe (dsDNA) DNA 1: CACGGATCATGCATGGACGACACGGATCATGCATGGACGACACG DNA 2: CGTGTCGTCCATGCATGATCCGTGTCGTCCATGCATGATCCGTG", "Kd", 1.28),
]
